The measured values listed here are drawn from patent US12281109B2.

Let's look at some compounds and their measured IC50.
# target system: human HDAC1 (Homo sapiens, UniProt Q13547)
# Sequence (Q13547 whole entry): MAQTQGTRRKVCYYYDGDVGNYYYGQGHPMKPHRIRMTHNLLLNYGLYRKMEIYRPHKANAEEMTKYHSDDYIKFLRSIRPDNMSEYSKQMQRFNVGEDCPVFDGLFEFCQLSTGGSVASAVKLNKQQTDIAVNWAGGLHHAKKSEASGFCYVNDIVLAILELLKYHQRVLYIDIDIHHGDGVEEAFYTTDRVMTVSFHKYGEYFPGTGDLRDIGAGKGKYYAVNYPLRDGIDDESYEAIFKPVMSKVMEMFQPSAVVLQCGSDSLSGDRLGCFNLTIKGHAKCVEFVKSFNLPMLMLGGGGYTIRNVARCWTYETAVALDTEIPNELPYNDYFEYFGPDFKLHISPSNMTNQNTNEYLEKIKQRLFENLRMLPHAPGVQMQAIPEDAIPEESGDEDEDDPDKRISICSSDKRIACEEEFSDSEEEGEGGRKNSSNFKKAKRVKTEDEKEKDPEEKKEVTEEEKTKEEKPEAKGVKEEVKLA
measurement type: IC50

1. CSc1cc([N+](=O)[O-])ccc1C(=O)NCCCC[C@H](NC(=O)c1cncs1)c1ncc(-c2ccc3ccccc3c2)[nH]1 : ≥ 45 µM
2. COc1ccc2[nH]c(C)c(C(C)C(=O)N[C@@H](CCCCNC(=O)c3ccccc3SC)c3ncc(-c4cc5ccccc5nc4OC)[nH]3)c2c1 (some centres unmarked) : ≥ 45 µM

* * *

Let's look at some molecules and their measured IC50.
# target system: human HDAC3/SMRT heterodimer (Homo sapiens)
# Sequence (O15379 whole entry): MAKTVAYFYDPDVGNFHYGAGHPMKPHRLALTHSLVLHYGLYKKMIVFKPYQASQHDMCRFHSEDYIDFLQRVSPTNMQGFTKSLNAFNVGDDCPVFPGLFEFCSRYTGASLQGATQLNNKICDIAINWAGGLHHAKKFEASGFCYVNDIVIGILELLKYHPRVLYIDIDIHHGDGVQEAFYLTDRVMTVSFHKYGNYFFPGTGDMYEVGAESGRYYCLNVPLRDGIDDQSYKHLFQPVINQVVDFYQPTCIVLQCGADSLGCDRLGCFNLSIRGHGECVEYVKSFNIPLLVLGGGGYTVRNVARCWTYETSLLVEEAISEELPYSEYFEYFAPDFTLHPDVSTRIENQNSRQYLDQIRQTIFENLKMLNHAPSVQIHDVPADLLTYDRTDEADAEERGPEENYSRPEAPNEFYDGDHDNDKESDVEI
# Sequence (Q9Y618 1-899 partner limits assumed): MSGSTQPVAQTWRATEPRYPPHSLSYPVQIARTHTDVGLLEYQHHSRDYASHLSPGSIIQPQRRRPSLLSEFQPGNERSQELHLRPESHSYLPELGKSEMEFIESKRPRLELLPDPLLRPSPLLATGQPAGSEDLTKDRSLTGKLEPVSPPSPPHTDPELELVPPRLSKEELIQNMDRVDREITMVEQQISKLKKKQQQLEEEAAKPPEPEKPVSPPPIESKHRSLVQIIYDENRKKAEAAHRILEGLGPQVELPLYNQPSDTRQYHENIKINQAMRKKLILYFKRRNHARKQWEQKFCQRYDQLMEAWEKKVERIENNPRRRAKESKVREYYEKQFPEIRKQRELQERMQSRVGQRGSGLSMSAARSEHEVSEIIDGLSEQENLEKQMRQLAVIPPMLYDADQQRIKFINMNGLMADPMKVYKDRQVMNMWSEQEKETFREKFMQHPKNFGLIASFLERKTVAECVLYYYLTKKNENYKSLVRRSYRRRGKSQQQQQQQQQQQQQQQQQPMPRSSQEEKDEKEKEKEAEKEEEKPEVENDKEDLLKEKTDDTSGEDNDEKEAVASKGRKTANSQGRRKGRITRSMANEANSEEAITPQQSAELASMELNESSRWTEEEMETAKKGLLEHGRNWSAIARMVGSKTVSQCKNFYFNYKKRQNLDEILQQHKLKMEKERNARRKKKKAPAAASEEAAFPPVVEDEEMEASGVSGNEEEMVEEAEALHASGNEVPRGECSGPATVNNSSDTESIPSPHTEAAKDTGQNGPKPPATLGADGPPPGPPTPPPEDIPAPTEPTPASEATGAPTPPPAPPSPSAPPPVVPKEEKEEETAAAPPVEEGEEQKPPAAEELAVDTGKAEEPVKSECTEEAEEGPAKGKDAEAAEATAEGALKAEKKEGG
# assay summary: Human HDAC enzyme inhibitor Fluor-De-Lys assay, HDAC3/SMRT
measurement type: IC50 (nM)

1. COc1ccc2[nH]c(C)c(C(C)C(=O)N[C@@H](CCCCNC(=O)c3ccccc3SC)c3ncc(-c4cc5ccccc5nc4OC)[nH]3)c2c1 (stereo partly shown) : 379
2. CSc1cc([N+](=O)[O-])ccc1C(=O)NCCCC[C@H](NC(=O)c1cncs1)c1ncc(-c2ccc3ccccc3c2)[nH]1 : 7000
3. COc1nc2ccccc2cc1-c1cnc(C2(CCCCNC(=O)c3ccccc3SC)CCC(=O)N2)[nH]1 (stereo not shown) : 671
4. Nc1ccc(F)c(F)c1C(=O)NCCCC[C@H](NC(=O)c1cncs1)c1ncc(-c2ccc3ccccc3c2)[nH]1 : 100
